Reported Chromogenic IC50 ratio mouse/human values follow for various binders
Target: T1, mouse PAI-1 (mouse, UniProt P22777 24-401)
T1 sequence: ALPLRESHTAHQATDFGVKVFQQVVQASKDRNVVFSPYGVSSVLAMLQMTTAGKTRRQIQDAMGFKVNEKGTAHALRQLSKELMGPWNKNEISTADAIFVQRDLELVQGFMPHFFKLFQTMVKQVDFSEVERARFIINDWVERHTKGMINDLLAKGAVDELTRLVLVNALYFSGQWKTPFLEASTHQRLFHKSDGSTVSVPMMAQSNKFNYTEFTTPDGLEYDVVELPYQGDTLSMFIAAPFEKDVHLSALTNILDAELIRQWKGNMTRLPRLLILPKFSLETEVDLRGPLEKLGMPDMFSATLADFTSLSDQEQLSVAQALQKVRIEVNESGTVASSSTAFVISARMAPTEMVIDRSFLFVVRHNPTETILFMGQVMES
Assay: cell-based or functional assay
Give your result in fold as a bare value.

The following binders have reported results that may help.
>>> recorded_result("Antibody 03 scFv (scFv) QVQLQQSGAEVKKPGSSVKVSCKASGGTFSSYAISWVRQAPGQGLEWMGGIIPTFGTANYAQKFQGRVTITADESTSTAYMELSGLRSEDTAVYYCAREKRQWLEGHFDYWGRGTPVTVSSDIQMTQSPSFLSASIGDRVTITCRASEGIYRSLAWYQQKPGKAPKLLIYKASSLASGAPSRFSGSGSGTDFTLTISGLQPDDFATYYCQQYSNYPLTFGGGTKLEIK")
30.5
>>> recorded_result("Antibody 19 scFv (scFv) QVQLQQSGAEVKKPGSSVKVSCKASGGTFSSYAISWVRQAPGQGLEWMGGIIPIFDTANYAQKFQGRVTITADESTSTAYMELSGLRSEDTAVYYCARERRQWLEGHFDYWGRGTPVTVSSDIRMTQSPSFLSASIGDRVTITCRASEGIYHELAWYQQKPGKAPKLLIYRASSLASGAPSRFSGSGSGTEFTLTISSLQPDDFATYYCQQYSNYPLTFGGGTKLEIK")
0.2

Now for the binder whose Chromogenic IC50 ratio mouse/human we want.
Q. Given the binder Antibody 20 IgG1, not germlined (antibody, V domains shown, IgG1; also called Ab 20) VH: QVQLQQSGAEVKKPGSSVKVSCKASGGTFSSYAISWVRQAPGQGLEWMGGIIPTFGTANYAQKFQGRVTITADESTSTAYMELSSLRSEDTAVYYCAREKRQWLEGHFDYWGRGTLVTVSS VL: DIQMTQSPSTLSASVGDRVTITCRASEGIYHELAWYQQKPGKAPKLLIYRASSLASGVPSRFSGSRSGTEFTLTISSLQPDDFATYYCQQYSDYPLTFGGGTKVEIK , write its reported Chromogenic IC50 ratio mouse/human.
A. 0.9

Origin of the recorded values: patent US20130266566A1
